Experiment: Pharmacokinetic determination in mice (plasma)
Format: in vivo, C57BL/6J mice
Settings: male, C57BL/6J, mouse, 5 mg/kg, C57 mice, PO administration, 5 mpk, read-out: Mean residence time MRT
Below, each entry is listed with its recorded MRT.
Quick note: give the figure in h, leave out the unit.

Exercise: Look up MRT for this compound: O=C1c2cccnc2CN1c1ccc(N[C@H]2CC[C@H](Nc3ncc(C(F)(F)F)cn3)C2)nc1 [Example 133]
Key: 6.2

Exercise: Any idea what MRT was measured for O=C1c2cccnc2CN1c1ccc(N[C@H]2CC[C@H](Nc3ncc(C(F)(F)F)nn3)C2)nc1 [Example 145] ?
Key: 4.6

Exercise: # MRT lookup, item O=C1c2cccnc2CN1c1ccc(N[C@H]2CC[C@H](Nc3ncc(OC(F)F)cn3)C2)nc1 [Example 77]
Key: 2.1

Exercise: Could you tell me which MRT is on file for O=C1c2ncccc2CN1c1ccc(N[C@H]2CC[C@H](Nc3nc4cc(F)ccn4n3)C2)nc1 [Example 129] ?
Key: 1.5

---

Experiment: Pharmacokinetic determination in mice (plasma)
Assay type: in vivo, C57BL/6J mice
Details: male, C57BL/6J, mouse, 5 mg/kg, C57 mice, PO administration, 5 mpk, read-out: Area under the curve AUC0-∞
Each entry falls in a class defined on AUC(0-inf); the bands are lower band (below 10000 ng·h/mL), central band (10000 ng·h/mL to below 40000 ng·h/mL), upper band (40000 ng·h/mL or more)

Please review the entries below; each comes with its answer.
O=C1c2cc(C(F)(F)F)ncc2CN1c1ccc(N[C@H]2CC[C@H](Nc3ncc(C(F)(F)F)nn3)C2)nc1 [Example 152] : upper band
Cc1nccc2c1CN(c1ccc(N[C@H]3CC[C@H](Nc4nc5cc(F)ccn5n4)C3)nc1)C2=O [Example 149] : central band
O=C1c2cccnc2CN1c1ccc(N[C@H]2CC[C@H](Nc3ncc(C(F)(F)F)cn3)C2)nc1 [Example 133] : central band

Exercise: Form: Item = Cc1nccc2c1CN(c1ccc(N[C@H]3CC[C@H](Nc4ncc(OC(F)F)cn4)C3)nc1)C2=O [Example 115] ; Class = ?
Key: central band

Exercise: Dear colleague, I would appreciate it if you could identify the bin for Cc1ccn2nc(N[C@H]3CC[C@H](Nc4ccc(-n5ccccc5=O)cn4)C3)nc2c1 [Example 87] and reply at your convenience.
Key: central band

Exercise: The entry to classify is O=C1c2cc(C(F)(F)F)ncc2CN1c1ccc(N[C@H]2CC[C@H](Nc3nc4cc(F)ccn4n3)C2)nc1 [Example 151] ; which class holds it?
Key: upper band

---

Let's look at some compounds and their measured Time to peak tmax.
Experiment: Pharmacokinetic determination in mice (plasma)
Type: in vivo, C57BL/6J mice
Settings: C57 mice, PO administration, 5 mpk
Your answer should be a plain number; it is taken to be in h.

O=C1c2ncccc2CN1c1ccc(N[C@H]2CC[C@H](Nc3ncc(OCC(F)(F)F)cn3)C2)nc1 [Example 125] : 1
O=C1c2cc(C(F)(F)F)ncc2CN1c1ccc(N[C@H]2CC[C@H](Nc3ncc(C(F)(F)F)nn3)C2)nc1 [Example 152] : 2
Cc1cc2c(cn1)CN(c1ccc(N[C@H]3CC[C@H](Nc4ncc(OC(F)F)cn4)C3)nc1)C2=O [Example 116] : 1

Exercise: Query (compound): Cc1nccc2c1CN(c1ccc(N[C@H]3CC[C@H](Nc4ncc(OC(F)F)cn4)C3)nc1)C2=O [Example 115] ; field requested: Time to peak tmax
Key: 0.5

Exercise: Param item = O=C1c2ncccc2CN1c1ccc(N[C@H]2CC[C@H](Nc3ncc(OC(F)F)cn3)C2)nc1 [Example 57] ; retrieve measured Time to peak tmax.
Key: 1

Exercise: // lookup Time to peak tmax for O=C1c2cccc(C(F)(F)F)c2CN1c1ccc(N[C@H]2CC[C@H](Nc3ncc(C(F)(F)F)nn3)C2)nc1 [Example 158]
Key: 4

Exercise: Looking for the measured Time to peak tmax of O=C1c2nc(C(F)(F)F)ccc2CN1c1ccc(N[C@H]2CC[C@H](Nc3nc4cc(F)ccn4n3)C2)nc1 [Example 155] , can you help?
Key: 0.5

Exercise: Fill in: Time to peak tmax of O=C1c2cccnc2CN1c1ccc(N[C@H]2CC[C@H](Nc3ncc(C4CC4)cn3)C2)nc1 [Example 128] is ___
Key: 0.5

Exercise: Fill in: Time to peak tmax of O=C1c2ncccc2CN1c1ccc(N[C@H]2CC[C@H](Nc3ncc(C(F)(F)F)nn3)C2)nc1 [Example 144] is ___
Key: 1

Exercise: Consider the compound shown here: O=C1c2cccnc2CN1c1ccc(N[C@H]2CC[C@H](Nc3ncc(OC(F)F)cn3)C2)nc1 [Example 77] What is its recorded Time to peak tmax?
Key: 0.25

Exercise: I would be grateful if you could share the reported Time to peak tmax for O=C1c2cccnc2CN1c1ccc(N[C@H]2CC[C@H](Nc3ncc(C(F)(F)F)nn3)C2)nc1 [Example 145] .
Key: 0.5
